FYI, the data here is from the supplement of paper PMC10567573.

B1: RAD54B (parent)
chain: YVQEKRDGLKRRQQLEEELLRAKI

- Variants of: B1
- ASSAY_REMARKS: protein stability index of a GFP-peptide fusion (GPS, HEK-293T) (PSI 1-6); higher = more stable;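 note: lentivirally expressed fusions sorted by FACS into six bins by GFP to DsRed ratio, PSI derived from sequencing read proportions per bin multiplied by bin number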
- DETAILS: c terminus: a fixed tail appended
Short version: protein stability index at least 2 is yes (1), less is no (0).

Dear colleague, could you confirm whether "D7G" has protein stability index at or above 2?
no (0)

And what about the variant "I24T" ?
no (0)

And what about the variant "R6H" ?
yes (1)

And what about the variant "E16V" ?
yes (1)

And what about the variant "A22H" ?
no (0)
